Where these numbers come from: patent US20240190987A1

molecular target: cyEpCAM ECD Ag0066 (cyno); assay: SPR single-cycle
measured quantity: pKd
Answers are plain numbers, as −log10 of the molar value.

In the examples that follow, each entry is paired with its recorded pKd.
[
  {
    "binder": "Ab1019 (antibody, V domains shown) VH: EVQLVESGGGLVQPGGSLRLSCAASGFTFSNYWMNWVRQAPGKGLEWVAQIRVKSENFATHYADSVKGRFTISRDDSKSTVYLQMNSLRAEDTAVYYCTLYDAFSWGQGTLVTVSS VL: DIQMTQSPSSLSASVGDRVTITCSASSSVSSGNFHWYQQKPGKAPKLLIYRTSNLASGVPSRFSGSGSGTDYTLTISSLQPEDFATYYCQQWSGYPYTFGQGTKVEIK",
    "pKd": 8.70
  },
  {
    "binder": "Ab1023 (antibody, V domains shown) VH: EVQLVESGGGLVQPGGSLRLSCAASGFTFSNYWMNWVRQAPGKGLEWVAQIRVKYENFATHYADSVKGRFTISRDDSKSTVYLQMNSLRAEDTAVYYCTLYDGFSWGQGTLVTVSS VL: DIQMTQSPSSLSASVGDRVTITCSASSSVSSGNFHWYQQKPGKAPKLLIYRTSNLASGVPSRFSGSGSGTDYTLTISSLQPEDFATYYCQQWSGYPYTFGQGTKVEIK",
    "pKd": 9.05
  }
]

Query binder follows.
Enquiry: Which measured pKd value corresponds to Ab1011 (antibody, V domains shown) VH: EVQLVESGGGLVQPGGSLRLSCAASGFTFSNYWMNWVRQAPGKGLEWVAQIRVKSENFATHYADSVKGRFTISRDDSKSTVYLQMNSLRAEDTAVYYCTRYDGFSWGQGTLVTVSS VL: DIQMTQSPSSLSASVGDRVTITCSASSSVSSGNFHWYQQKPGKAPKLLIYRTSNLASGVPSRFSGSGSGTDYTLTISSLQPEDFATYYCQQWSGYPYTFGQGTKVEIKR ?
Return: 8.00
